# Method: Agonistic activity against Nicotinic acetylcholine receptor alpha-7 - 5-hydroxytryptamine 3 receptor chimera
# Assay type: functional
pEC50: −log10 of the molar value.
Hi, to clarify the labels: 1 covers pEC50 from 6 upward, -1 covers anything below 6.

Please tell me: is the molecule `CSc1ccc(C(=O)N[C@H]2CN3CCC2CC3)cc1` at or over 6 in terms of pEC50?
1

Please tell me: is the molecule O=C(N[C@H]1CN2CCC1CC2)c1ccc(Cl)cc1 [PNU-282987] at or over 6 in terms of pEC50?
1

Please tell me: is the molecule `CC(C)c1ccc(C(=O)N[C@H]2CN3CCC2CC3)cc1` at or over 6 in terms of pEC50?
-1

Please tell me: is the molecule `O=C(N[C@H]1CN2CCC1CC2)c1cccc(F)c1` at or over 6 in terms of pEC50?
-1

Please tell me: is the molecule `O=C(N[C@H]1CN2CCC1CC2)c1ccc(SCc2ccccc2)cc1` at or over 6 in terms of pEC50?
-1

Please tell me: is the molecule `O=C(N[C@H]1CN2CCC1CC2)c1ccc(Br)cc1` at or over 6 in terms of pEC50?
1

Please tell me: is the molecule `O=C(N[C@H]1CN2CCC1CC2)c1ccc(Cl)cc1` at or over 6 in terms of pEC50?
1

Please tell me: is the molecule `CN(C)c1ccc(C(=O)N[C@H]2CN3CCC2CC3)cc1` at or over 6 in terms of pEC50?
-1

Please tell me: is the molecule `CC(=O)Nc1ccc(C(=O)N[C@H]2CN3CCC2CC3)cc1` at or over 6 in terms of pEC50?
-1

Please tell me: is the molecule `CS(=O)(=O)c1ccc(C(=O)N[C@H]2CN3CCC2CC3)cc1` at or over 6 in terms of pEC50?
-1

Please tell me: is the molecule `O=C(N[C@H]1CN2CCC1CC2)c1ccccc1F` at or over 6 in terms of pEC50?
-1

Please tell me: is the molecule `COc1ccccc1C(=O)N[C@H]1CN2CCC1CC2` at or over 6 in terms of pEC50?
-1

Please tell me: is the molecule `Cc1ccc(C(=O)N[C@H]2CN3CCC2CC3)cc1` at or over 6 in terms of pEC50?
1

Please tell me: is the molecule `CCc1ccc(C(=O)N[C@H]2CN3CCC2CC3)cc1` at or over 6 in terms of pEC50?
-1

Please tell me: is the molecule `O=C(N[C@H]1CN2CCC1CC2)c1ccc(C(F)(F)F)cc1` at or over 6 in terms of pEC50?
-1

Please tell me: is the molecule `COc1cccc(C(=O)N[C@H]2CN3CCC2CC3)c1` at or over 6 in terms of pEC50?
-1

Please tell me: is the molecule `CC(=O)c1ccc(C(=O)N[C@H]2CN3CCC2CC3)cc1` at or over 6 in terms of pEC50?
-1

Please tell me: is the molecule `O=C(N[C@H]1CN2CCC1CC2)c1ccc(I)cc1` at or over 6 in terms of pEC50?
1

Please tell me: is the molecule `O=C(N[C@H]1CN2CCC1CC2)c1ccc(F)cc1` at or over 6 in terms of pEC50?
1

Please tell me: is the molecule `O=C(N[C@H]1CN2CCC1CC2)c1ccccc1` at or over 6 in terms of pEC50?
-1

Please tell me: is the molecule `CCCc1ccc(C(=O)N[C@H]2CN3CCC2CC3)cc1` at or over 6 in terms of pEC50?
-1

Please tell me: is the molecule `O=C(N[C@H]1CN2CCC1CC2)c1ccc(OCc2ccccc2)cc1` at or over 6 in terms of pEC50?
-1

Please tell me: is the molecule `COc1ccc(C(=O)N[C@H]2CN3CCC2CC3)cc1` at or over 6 in terms of pEC50?
1
